Reported Drug uptake values for a set of compounds
tested on: Heart; experiment: Biodistribution in Sprague-Dawley rat heart at 14.8 to 18.5 MBq, iv measured at 5 mins post-injection by gamma counting analysis; assay type: ADME, organism-based; settings: in vivo

# Structure Smiles String, Drug uptake, % ID/g
measured = [
    ("Cn1ncc(-c2ccncc2)c1-c1ccc(OCc2cc(O[11CH3])c3ccccc3n2)cc1", 0.335),
    ("Cn1cc(-c2ccncc2)c(-c2ccc(OCc3cc(O[11CH3])c4ccccc4n3)cc2)n1", 0.464),
    ("Cn1cc(-c2ccncc2)c(-c2ccc(OCc3nc4ccccc4cc3O[11CH3])cc2)n1", 0.733),
    ("Cn1cc(-c2ccncc2)c(-c2ccc(OCc3ccc4cc(O[11CH3])ccc4n3)cc2)n1", 0.416),
]

----------
tested on: Brain; test: Biodistribution in Sprague-Dawley rat brain at 14.8 to 18.5 MBq, iv measured at 30 mins post-injection by gamma counting analysis; format: ADME, organism-based; conditions: in vivo, 0.5 h
Reported Drug uptake values for a set of molecules

# Structure Smiles String, Drug uptake [% ID/g]
measured = [
    ("Cn1ncc(-c2ccncc2)c1-c1ccc(OCc2cc(O[11CH3])c3ccccc3n2)cc1", 0.025),
    ("Cn1cc(-c2ccncc2)c(-c2ccc(OCc3ccc4cc(O[11CH3])ccc4n3)cc2)n1", 0.105),
    ("Cn1cc(-c2ccncc2)c(-c2ccc(OCc3nc4ccccc4cc3O[11CH3])cc2)n1", 0.133),
    ("Cn1cc(-c2ccncc2)c(-c2ccc(OCc3cc(O[11CH3])c4ccccc4n3)cc2)n1", 0.087),
]

----------
Reported Drug uptake values for a set of compounds
system: Blood; experiment: Biodistribution in Sprague-Dawley rat blood at 14.8 to 18.5 MBq, iv measured at 30 mins post-injection by gamma counting analysis; assay type: ADME, organism-based; details: in vivo, 0.5 h
Measurement Name: Drug uptake (% ID/g)

# Structure Smiles String, Numeric Readout
rows = [
    ("Cn1cc(-c2ccncc2)c(-c2ccc(OCc3ccc4cc(O[11CH3])ccc4n3)cc2)n1", 0.275),
    ("Cn1cc(-c2ccncc2)c(-c2ccc(OCc3cc(O[11CH3])c4ccccc4n3)cc2)n1", 0.192),
    ("Cn1ncc(-c2ccncc2)c1-c1ccc(OCc2cc(O[11CH3])c3ccccc3n2)cc1", 0.067),
    ("Cn1cc(-c2ccncc2)c(-c2ccc(OCc3nc4ccccc4cc3O[11CH3])cc2)n1", 0.321),
]

----------
system: Cerebellum; assay: Biodistribution in Sprague-Dawley rat cerebellum at 14.8 to 18.5 MBq, iv measured at 5 mins post-injection by gamma counting analysis; type: ADME, organism-based; settings: in vivo
Reported Drug uptake values for a set of molecules
Measurement Name: Drug uptake

# Structure Smiles String, Result
measured = [
    ("Cn1cc(-c2ccncc2)c(-c2ccc(OCc3cc(O[11CH3])c4ccccc4n3)cc2)n1", "0.215 % ID/g"),
    ("Cn1cc(-c2ccncc2)c(-c2ccc(OCc3nc4ccccc4cc3O[11CH3])cc2)n1", "0.229 % ID/g"),
    ("Cn1cc(-c2ccncc2)c(-c2ccc(OCc3ccc4cc(O[11CH3])ccc4n3)cc2)n1", "0.251 % ID/g"),
    ("Cn1ncc(-c2ccncc2)c1-c1ccc(OCc2cc(O[11CH3])c3ccccc3n2)cc1", "0.094 % ID/g"),
]

----------
tested on: Heart; assay: Biodistribution in Sprague-Dawley rat heart at 14.8 to 18.5 MBq, iv measured at 30 mins post-injection by gamma counting analysis; assay type: ADME, organism-based; conditions: in vivo, 0.5 h
Measurement Name: Drug uptake (% ID/g)

# Structure Smiles String, Tested System, Value Unit, Numeric Readout
data = [
    ("Cn1cc(-c2ccncc2)c(-c2ccc(OCc3nc4ccccc4cc3O[11CH3])cc2)n1", "Heart", "% ID/g", 0.296),
    ("Cn1cc(-c2ccncc2)c(-c2ccc(OCc3ccc4cc(O[11CH3])ccc4n3)cc2)n1", "Heart", "% ID/g", 0.264),
    ("Cn1ncc(-c2ccncc2)c1-c1ccc(OCc2cc(O[11CH3])c3ccccc3n2)cc1", "Heart", "% ID/g", 0.132),
    ("Cn1cc(-c2ccncc2)c(-c2ccc(OCc3cc(O[11CH3])c4ccccc4n3)cc2)n1", "Heart", "% ID/g", 0.187),
]

----------
Reported Drug uptake values for a set of compounds
system: Liver; test: Biodistribution in Sprague-Dawley rat liver at 14.8 to 18.5 MBq, iv measured at 30 mins post-injection by gamma counting analysis; type: ADME, organism-based; conditions: in vivo, 0.5 h

# Structure Smiles String, Drug uptake, % ID/g
measured = [
    ("Cn1cc(-c2ccncc2)c(-c2ccc(OCc3nc4ccccc4cc3O[11CH3])cc2)n1", 7.345),
    ("Cn1ncc(-c2ccncc2)c1-c1ccc(OCc2cc(O[11CH3])c3ccccc3n2)cc1", 4.43),
    ("Cn1cc(-c2ccncc2)c(-c2ccc(OCc3ccc4cc(O[11CH3])ccc4n3)cc2)n1", 3.172),
    ("Cn1cc(-c2ccncc2)c(-c2ccc(OCc3cc(O[11CH3])c4ccccc4n3)cc2)n1", 10.085),
]

----------
tested on: Brain; assay: Biodistribution in Sprague-Dawley rat brain at 14.8 to 18.5 MBq, iv measured at 5 mins post-injection by gamma counting analysis; format: ADME, organism-based; conditions: in vivo

# Structure Smiles String, Tested System, Drug uptake / % ID/g
data = [
    ("Cn1cc(-c2ccncc2)c(-c2ccc(OCc3nc4ccccc4cc3O[11CH3])cc2)n1", "Brain", 0.231),
    ("Cn1ncc(-c2ccncc2)c1-c1ccc(OCc2cc(O[11CH3])c3ccccc3n2)cc1", "Brain", 0.091),
    ("Cn1cc(-c2ccncc2)c(-c2ccc(OCc3cc(O[11CH3])c4ccccc4n3)cc2)n1", "Brain", 0.21),
    ("Cn1cc(-c2ccncc2)c(-c2ccc(OCc3ccc4cc(O[11CH3])ccc4n3)cc2)n1", "Brain", 0.249),
]

----------
test system: Kidney; assay: Biodistribution in Sprague-Dawley rat kidney at 14.8 to 18.5 MBq, iv measured at 60 mins post-injection by gamma counting analysis; assay type: ADME, organism-based; details: in vivo, 1 h

# Structure Smiles String, Drug uptake (% ID/g)
data = [
    ("Cn1cc(-c2ccncc2)c(-c2ccc(OCc3nc4ccccc4cc3O[11CH3])cc2)n1", 1.275),
    ("Cn1ncc(-c2ccncc2)c1-c1ccc(OCc2cc(O[11CH3])c3ccccc3n2)cc1", 0.575),
    ("Cn1cc(-c2ccncc2)c(-c2ccc(OCc3ccc4cc(O[11CH3])ccc4n3)cc2)n1", 0.637),
    ("Cn1cc(-c2ccncc2)c(-c2ccc(OCc3cc(O[11CH3])c4ccccc4n3)cc2)n1", 0.758),
]

----------
test system: Blood; test: Biodistribution in Sprague-Dawley rat blood at 14.8 to 18.5 MBq, iv measured at 5 mins post-injection by gamma counting analysis; assay type: ADME, organism-based; conditions: in vivo
Measurement Name: Drug uptake (% ID/g)

# Structure Smiles String, Value Unit, Numeric Readout
records = [
    ("Cn1cc(-c2ccncc2)c(-c2ccc(OCc3ccc4cc(O[11CH3])ccc4n3)cc2)n1", "% ID/g", 0.282),
    ("Cn1ncc(-c2ccncc2)c1-c1ccc(OCc2cc(O[11CH3])c3ccccc3n2)cc1", "% ID/g", 0.099),
    ("Cn1cc(-c2ccncc2)c(-c2ccc(OCc3cc(O[11CH3])c4ccccc4n3)cc2)n1", "% ID/g", 0.268),
    ("Cn1cc(-c2ccncc2)c(-c2ccc(OCc3nc4ccccc4cc3O[11CH3])cc2)n1", "% ID/g", 0.679),
]

----------
Reported Drug uptake values for a set of compounds
system: Muscle tissue; assay: Biodistribution in Sprague-Dawley rat muscle at 14.8 to 18.5 MBq, iv measured at 30 mins post-injection by gamma counting analysis; format: ADME, organism-based; conditions: in vivo, 0.5 h
Measurement Name: Drug uptake (% ID/g)

# Structure Smiles String, Tested System, Measurement Name, Value Unit, Numeric Readout
data = [
    ("Cn1cc(-c2ccncc2)c(-c2ccc(OCc3cc(O[11CH3])c4ccccc4n3)cc2)n1", "Muscle tissue", "Drug uptake", "% ID/g", 0.133),
    ("Cn1cc(-c2ccncc2)c(-c2ccc(OCc3ccc4cc(O[11CH3])ccc4n3)cc2)n1", "Muscle tissue", "Drug uptake", "% ID/g", 0.175),
    ("Cn1cc(-c2ccncc2)c(-c2ccc(OCc3nc4ccccc4cc3O[11CH3])cc2)n1", "Muscle tissue", "Drug uptake", "% ID/g", 0.244),
    ("Cn1ncc(-c2ccncc2)c1-c1ccc(OCc2cc(O[11CH3])c3ccccc3n2)cc1", "Muscle tissue", "Drug uptake", "% ID/g", 0.093),
]
